test: Dog PK study #4 (Compound A PO daily 14 days, 1/3/10 mg/kg; toxicokinetics, platelet counts); format: in vivo, beagle dogs; conditions: both sexes, beagle, dog, plasma, oral; after daily administration for 14 days, 3 mg/kg, Pooled Mean, 8 h
READOUT_TYPE: concentration at 8 h (ng/mL)
# number only, unit ng/mL dropped from output

INPUT: Which value of concentration at 8 h has been reported for Cn1cc(-c2ccccc2)c(-c2cn(C)c(=O)c3[nH]c(-c4cnn(C(F)(F)F)c4)cc23)cc1=O [Compound A] in the records?
OUTPUT: 126

###

test: CIA study: pharmacokinetics / plasma concentration after oral administration; type: in vivo, Lewis rats; details: Lewis, rat, plasma, po, 3 mg/kg, oral 3 mg/kg, day 0, time 2; read-out: Mean Concentration (average plasma concentration)
READOUT_TYPE: concentration at 2 h (ng/mL)
Please respond with the number in ng/mL and leave the unit unwritten.

INPUT: # query: concentration at 2 h of entry Cn1cc(-c2ccccc2)c(-c2cn(C)c(=O)c3[nH]c(-c4cnn(C(F)(F)F)c4)cc23)cc1=O
OUTPUT: 79
